Entries and their IC50
test system: Endogenous Huntingtin Protein; experiment: Endogenous Huntingtin Protein Assay (Meso Scale Discovery ELISA-based electrochemiluminescence); assay type: cell-based; conditions: MSD electrochemiluminescence, Table 1
Value Type: IC50

INSERT INTO assay_data (compound, observed_measurement) VALUES
  ('CCN1CCC(c2cc(F)c3cc(-c4cc(C)c5nn(C)cc5c4)nnc3c2)CC1 [Compound 183]', '≤ 100 nM'),
  ('CCCN1CCC(c2cc3c(F)cc(-c4cc(C)c5nc(C)cn5n4)cc3nn2)CC1 [Compound 77]', '≤ 100 nM'),
  ('Cc1cc(C2CCNCC2)nc2ccc(-c3ccc4nn(C)cc4c3)cc12 [Compound 5]', '1000 to 3000 nM'),
  ('Cc1cn2nc(-c3cc(F)c4cc(C5C[C@@H](C)N(C)[C@H](C)C5)nnc4c3)cc(C)c2n1 (some centres unmarked) [Compound 124]', '≤ 100 nM'),
  ('Cn1cc2cc(-c3cc4c(F)cc(C5CCNCC5)cc4nn3)cc(F)c2n1 [Compound 151]', '≤ 100 nM'),
  ('Cc1nc(-c2cc(F)c3nc(C4CCNCC4)nnc3c2)cc2cn(C)nc12 [Compound 67]', '100 to 500 nM'),
  ('Cc1cn2cc(-c3nnc4cc(C5CCNCC5)cc(F)c4n3)cc(C)c2n1 [Compound 40]', '100 to 500 nM'),
  ('Cc1cn2cc(-c3cc(F)c4cc(C5CCNCC5)nnc4c3)ccc2n1 [Compound 210]', '≤ 100 nM');

====

Test system: Endogenous Huntingtin Protein
Test: Endogenous Huntingtin Protein Assay (Meso Scale Discovery ELISA-based electrochemiluminescence)
Type: cell-based
Conditions: MSD electrochemiluminescence, Table 1
Procedure: Compounds of Formula (I) were tested using the Meso Scale Discovery (MSD) Assay provided in International Application No. PCT/US2016/066042, filed on Dec. 11, 2016 and claiming priority to United States Provisional Application U.S. 62/265,652 filed on Dec. 10, 2015, the entire contents of which are incorporated herein by reference. The Endogenous Huntingtin Protein assay used in Example 1 was developed using the ELISA-based MSD electrochemiluminescence assay platform. […]
pIC50: −log10 of the molar value.
Entries and their pIC50
Value Type: pIC50

INSERT INTO results (molecule, value_type, observed_measurement) VALUES
  ('Cc1cc2oc(-c3cc(F)c4cc(C5C[C@@H](C)N(C)[C@@H](C)C5)nnc4c3)nc2c(C)n1 (some centres unmarked) [Compound 228]', 'pIC50', '6.30 to 7.00'),
  ('Cc1cn2nc(-c3ccc4nc(C5CCNCC5)ccc4c3)cc(C)c2n1 [Compound 19]', 'pIC50', '≥ 7.00'),
  ('CCc1cc(-c2cc(F)c3cc(C4CCNCC4)nnc3c2)nc2cn(C)nc12 [Compound 172]', 'pIC50', '≥ 7.00'),
  ('Cc1cn2nc(-c3cc(F)c4cc(N5C[C@@H]6[C@H](C5)[C@H]6N(C)C)nnc4c3)cc(C)c2n1 [Compound 223]', 'pIC50', '≥ 7.00'),
  ('Cc1cn2nc(-c3cc(F)c4cc(N5CC6(CCCNC6)C5)nnc4c3)cc(C)c2n1 [Compound 218]', 'pIC50', '≥ 7.00'),
  ('CCN1CCC(c2cc3ccc(-c4cc(C)c5nc(C)cn5n4)cc3nn2)CC1 [Compound 85]', 'pIC50', '6.30 to 7.00'),
  ('CCN1CCC(c2ccc3cc(-c4cc(C)c5nc(C)cn5n4)cc(F)c3n2)CC1 [Compound 48]', 'pIC50', '≥ 7.00'),
  ('Cc1cn2nc(-c3cc(F)c4cc(C5CCNCC5)nnc4c3)cc(OCCN(C)C)c2n1 [Compound 138]', 'pIC50', '6.30 to 7.00'),
  ('Cn1cc2c(F)c(-c3cc(F)c4cc(C5CCNCC5)nnc4c3)ccc2n1 [Compound 109]', 'pIC50', '6.00 to 6.30'),
  ('Cn1cc2cc(-c3cc4c(F)cc(C5=CCNCC5)cc4nn3)cc(F)c2n1 [Compound 134]', 'pIC50', '≥ 7.00'),
  ('Cc1cn2nc(-c3cc(F)c4cc(C5CCN(CCCN(C)C)CC5)nnc4c3)cc(C)c2n1 [Compound 158]', 'pIC50', '≥ 7.00'),
  ('Cc1cn2nc(-c3cc(F)c4cc(N5CC6(CCNCC6)C5)nnc4c3)cc(C)c2n1 [Compound 221]', 'pIC50', '≥ 7.00'),
  ('Cc1cn2cc(-c3cc(F)c4nc(C5CCNCC5)ccc4c3)cc(F)c2n1 [Compound 50]', 'pIC50', '≥ 7.00'),
  ('Cc1cc2oc(-c3cc(F)c4cc(C5CCNCC5)nnc4c3)nc2c(C)n1 [Compound 137]', 'pIC50', '≥ 7.00'),
  ('Cc1cc2oc(-c3cc(F)c4cc(C5CCN(C)CC5)nnc4c3)nc2c(C)n1 [Compound 214]', 'pIC50', '6.30 to 7.00'),
  ('CCCc1cc(-c2cc(F)c3cc(C4CCNCC4)nnc3c2)nn2cc(C)nc12 [Compound 204]', 'pIC50', '≥ 7.00'),
  ('Cc1cn2nc(-c3cc(F)c4cc(C5CCN(CCO)CC5)nnc4c3)cc(C#N)c2n1 [Compound 178]', 'pIC50', '≥ 7.00');

====

system: Endogenous Huntingtin Protein; assay: Endogenous Huntingtin Protein Assay (Meso Scale Discovery ELISA-based electrochemiluminescence); type: cell-based; conditions: MSD electrochemiluminescence, Table 1
Entries and their IC50
Value Type: IC50

INSERT INTO results (compound, observed_measurement) VALUES
  ('Cc1cn2nc(-c3cc(F)c4cc(C5CCN(C)CC5)nnc4c3)cc(CO)c2n1', '≤ 100 nM'),
  ('Cn1cc2cc(-c3ccc4cc(C5=CCNCC5)cc(F)c4n3)cc(F)c2n1', '≤ 100 nM'),
  ('Cc1cn2cc(-c3nnc4cc(C5CCNCC5)cc(F)c4n3)cc(F)c2n1', '100 to 500 nM'),
  ('Cc1cc(-c2cc3c(F)cc(C4CCNCC4)cc3nn2)cc2cn(C)nc12', '≤ 100 nM'),
  ('Cc1cc(-c2cc(F)c3nc(N(C)C4CCNCC4)nnc3c2)cc2cn(C)nc12', '100 to 500 nM'),
  ('CCN1CCC(c2cc(F)c3cc(-c4cc(F)c5nc(C)cn5c4)nnc3c2)CC1', '≤ 100 nM'),
  ('Cc1cn2nc(-c3cc(F)c4cc(C5CCCN(CCO)CC5)nnc4c3)cc(C)c2n1 (centres unmarked)', '≤ 100 nM'),
  ('Cc1cc2cc(-c3cc(F)c4cc(C5CCNCC5)nnc4c3)oc2c(C)n1', '≤ 100 nM');

====

Entries and their IC50
system: Endogenous Huntingtin Protein; test: Endogenous Huntingtin Protein Assay (Meso Scale Discovery ELISA-based electrochemiluminescence); type: cell-based; conditions: MSD electrochemiluminescence, Table 1
Value Type: IC50

INSERT INTO assay_data (compound, observed_measurement) VALUES
  ('Cc1cn2nc(-c3cc(F)c4cc(C5CCCN(CCF)CC5)nnc4c3)cc(C)c2n1 (stereo not shown)', '≤ 0.1 µM'),
  ('Cc1cc2cc(-c3cc(F)c4nc(C5CCNCC5)nnc4c3)cc(C)n2n1', '0.1 to 0.5 µM'),
  ('Cc1cc(-c2cc(F)c3nc(C4CCNCC4)ccc3c2)cc2cn(C)nc12', '≤ 0.1 µM'),
  ('CCN1CCC(c2cc3c(F)cc(-c4cc(C)c5nc(C)sc5n4)cc3nn2)CC1', '≤ 0.1 µM');

====

tested on: Endogenous Huntingtin Protein; test: Endogenous Huntingtin Protein Assay (Meso Scale Discovery ELISA-based electrochemiluminescence); type: cell-based; conditions: MSD electrochemiluminescence, Table 1
Entries and their IC50
Value Type: IC50

INSERT INTO measurements (compound, observed_measurement) VALUES
  ('Cc1cc(-c2ccc3nc(C4=CC(C)(C)NC(C)(C)C4)ccc3c2)cc2cn(C)nc12 [Compound 13]', '1 to 3 µM'),
  ('Cc1cn2nc(-c3cc(F)c4cc(C5CCNCC5)nnc4c3)cc(CC#N)c2n1 [Compound 187]', '≤ 0.1 µM'),
  ('Cc1cn2nc(-c3cc(F)c4cc(N5CCC6(CC5)CNC6)nnc4c3)cc(C)c2n1 [Compound 219]', '≤ 0.1 µM'),
  ('Cc1cn2cc(-c3cc(F)c4nc(C5CCNCC5)nnc4c3)cc(C(F)(F)F)c2n1 [Compound 61]', '0.5 to 1 µM'),
  ('Cc1cc(-c2ccc3cc(C4CCNCC4)ncc3c2)cc2cn(C)nc12 [Compound 30]', '0.1 to 0.5 µM'),
  ('Cc1nc2c(C)cc(-c3cc(F)c4nc(C5CCNCC5)nnc4c3)cc2o1 [Compound 62]', '≤ 0.1 µM'),
  ('Cc1cc(-c2ccc3nc(C4CCNCC4)cnc3c2)cc2cn(C)nc12 [Compound 31]', '0.1 to 0.5 µM'),
  ('Cc1cn2nc(-c3cc(F)c4cc(C5CCN(C(C)C)CC5)nnc4c3)cc(C)c2n1 [Compound 78]', '≤ 0.1 µM'),
  ('Cc1cn2cc(-c3cc(F)c4nc(C5CCNCC5)nnc4c3)cc(C)c2n1 [Compound 60]', '0.1 to 0.5 µM'),
  ('Cc1nc2c(C)cc(-c3cc(F)c4cc(C5CCNCC5)nnc4c3)nc2[nH]1 [Compound 126]', '≤ 0.1 µM'),
  ('Cn1cc2cc(-c3cc(F)c4cc(C5CCNCC5)nnc4c3)cc(C#N)c2n1 [Compound 104]', '≤ 0.1 µM'),
  ('Cc1cn2nc(-c3cc(F)c4cc(C5CCN(CCCn6cnc7ccccc76)CC5)nnc4c3)cc(C)c2n1 [Compound 145]', '≤ 0.1 µM'),
  ('CCCc1cc(-c2cc(F)c3cc(C4CCN(CC)CC4)nnc3c2)nn2cc(C)nc12 [Compound 212]', '0.1 to 0.5 µM'),
  ('Cc1cn2nc(-c3cc4c(F)cc(C5=CCNCC5)cc4nn3)cc(C)c2n1 [Compound 167]', '≤ 0.1 µM'),
  ('Cc1cn2nc(-c3cc(F)c4cc(C5CCNCC5)nnc4c3)cc(OCCCn3cccn3)c2n1 [Compound 141]', '≤ 0.1 µM'),
  ('CCN1CCC(c2cc3c(F)cc(-c4cc(C)c5nc(C)oc5n4)cc3nn2)CC1 [Compound 152]', '≤ 0.1 µM'),
  ('Cc1cn2nc(-c3cc(F)c4nc(C5CCNCC5)cnc4c3)cc(C)c2n1 [Compound 82]', '≤ 0.1 µM');
